# Tested on: HCC-2998 colon
# test-name: NCI tumour cell line growth inhibition, 48 h
measured-attribute: TGI (µM)
Lab book: enter the figure in µM, no units written.

[Q] I would be grateful if you could share the reported TGI for "COc1ccc2c(c1)-c1nn(CCN(C)C)c3ccc(C(=O)NCCCN(C)CCCNC(=O)c4ccc5c6c(nn5CCN(C)C)-c5cc(OC)ccc5Nc46)c(c13)N2" .
[A] 0.306

[Q] Dear colleague, I am looking for the recorded TGI of the following compound: "Cc1ccc2nc(N/N=C/c3cccc(C)n3)cc(C)c2c1"
[A] 27.6

[Q] Quick one: TGI of "NC(N)=N/N=C/c1c(-c2ccc(Cl)c([N+](=O)[O-])c2)nc2ccccn12" ?
[A] 3.1

[Q] Which TGI is reported for this compound? "CS(=O)(=O)O.[Ag]"
[A] 28.8

[Q] Consider the compound "Cc1cc(C)c2c(N)c3cccc(C)c3nc2n1" and give its measured TGI.
[A] 4.92

[Q] For "CC[C@@]1(O)C(=O)OCc2c1cc1n(c2=O)Cc2cc3c(NC(=O)CN)cccc3nc2-1" , what is its reported TGI?
[A] 9.05

[Q] Requested field: TGI. Item: "COc1cc2c(cc1OC)-c1c(c3ccc([N+](=O)[O-])cc3c(=O)n1CCCN)C2=O"
[A] 0.759

[Q] Which TGI value is on record for CN(C)CC(NC(NCS)C(=O)NCCNc1ccc(NCCNC(=O)C(NCS)NC(CN(C)C)OCCl)c2c1C(=O)c1c(O)ccc(O)c1C2=O)OCCl (configuration not stated) ?
[A] 1.86

[Q] // TGI lookup, key: "COc1ccc(-c2csc3c2-n2cccc2C3=O)cc1O"
[A] 8.71
